max response values, listed per item
METHOD DESCRIPTION: qHTS RealTime-Glo MT Cell Viability Assay in HEK293 cells - 40 hour (AID 1224874); note: % is set by controls: 0 for no effect and ±100 for the full control effect; nearly all actives have a fitted effect of over 50% in size
MEASUREMENT CONTEXT: RealTime-Glo luminescence; hits give low values
Inconclusive results are not listed.
# unit: % | format: bare number

These recorded examples may help you get a feel for the data.
| MOLECULE | max response / % |
| --- | --- |
| CCCCCCCCCCCCCCC | 10.7 |
| COC[C@H](c1ccc(C(F)(F)F)cc1)N1CCN(C2(C)CCN(C(=O)c3c(C)ncnc3C)CC2)C[C@H]1C | -19.9 |
| Cc1ccccc1C(=O)O | -0.805 |

Attention now shifts to the item below.
Sample CN(C)CCOC(c1ccc(Cl)cc1)c1ccccn1 (centres undefined) — what was its max response?
6.99
